# Target: T1, Clostridium difficile toxin B (TcdB) (Clostridium difficile, UniProt P18177 2-2366)
# T1 construct: also called rTcdB; TedB
# T1 sequence (P18177 2-2366): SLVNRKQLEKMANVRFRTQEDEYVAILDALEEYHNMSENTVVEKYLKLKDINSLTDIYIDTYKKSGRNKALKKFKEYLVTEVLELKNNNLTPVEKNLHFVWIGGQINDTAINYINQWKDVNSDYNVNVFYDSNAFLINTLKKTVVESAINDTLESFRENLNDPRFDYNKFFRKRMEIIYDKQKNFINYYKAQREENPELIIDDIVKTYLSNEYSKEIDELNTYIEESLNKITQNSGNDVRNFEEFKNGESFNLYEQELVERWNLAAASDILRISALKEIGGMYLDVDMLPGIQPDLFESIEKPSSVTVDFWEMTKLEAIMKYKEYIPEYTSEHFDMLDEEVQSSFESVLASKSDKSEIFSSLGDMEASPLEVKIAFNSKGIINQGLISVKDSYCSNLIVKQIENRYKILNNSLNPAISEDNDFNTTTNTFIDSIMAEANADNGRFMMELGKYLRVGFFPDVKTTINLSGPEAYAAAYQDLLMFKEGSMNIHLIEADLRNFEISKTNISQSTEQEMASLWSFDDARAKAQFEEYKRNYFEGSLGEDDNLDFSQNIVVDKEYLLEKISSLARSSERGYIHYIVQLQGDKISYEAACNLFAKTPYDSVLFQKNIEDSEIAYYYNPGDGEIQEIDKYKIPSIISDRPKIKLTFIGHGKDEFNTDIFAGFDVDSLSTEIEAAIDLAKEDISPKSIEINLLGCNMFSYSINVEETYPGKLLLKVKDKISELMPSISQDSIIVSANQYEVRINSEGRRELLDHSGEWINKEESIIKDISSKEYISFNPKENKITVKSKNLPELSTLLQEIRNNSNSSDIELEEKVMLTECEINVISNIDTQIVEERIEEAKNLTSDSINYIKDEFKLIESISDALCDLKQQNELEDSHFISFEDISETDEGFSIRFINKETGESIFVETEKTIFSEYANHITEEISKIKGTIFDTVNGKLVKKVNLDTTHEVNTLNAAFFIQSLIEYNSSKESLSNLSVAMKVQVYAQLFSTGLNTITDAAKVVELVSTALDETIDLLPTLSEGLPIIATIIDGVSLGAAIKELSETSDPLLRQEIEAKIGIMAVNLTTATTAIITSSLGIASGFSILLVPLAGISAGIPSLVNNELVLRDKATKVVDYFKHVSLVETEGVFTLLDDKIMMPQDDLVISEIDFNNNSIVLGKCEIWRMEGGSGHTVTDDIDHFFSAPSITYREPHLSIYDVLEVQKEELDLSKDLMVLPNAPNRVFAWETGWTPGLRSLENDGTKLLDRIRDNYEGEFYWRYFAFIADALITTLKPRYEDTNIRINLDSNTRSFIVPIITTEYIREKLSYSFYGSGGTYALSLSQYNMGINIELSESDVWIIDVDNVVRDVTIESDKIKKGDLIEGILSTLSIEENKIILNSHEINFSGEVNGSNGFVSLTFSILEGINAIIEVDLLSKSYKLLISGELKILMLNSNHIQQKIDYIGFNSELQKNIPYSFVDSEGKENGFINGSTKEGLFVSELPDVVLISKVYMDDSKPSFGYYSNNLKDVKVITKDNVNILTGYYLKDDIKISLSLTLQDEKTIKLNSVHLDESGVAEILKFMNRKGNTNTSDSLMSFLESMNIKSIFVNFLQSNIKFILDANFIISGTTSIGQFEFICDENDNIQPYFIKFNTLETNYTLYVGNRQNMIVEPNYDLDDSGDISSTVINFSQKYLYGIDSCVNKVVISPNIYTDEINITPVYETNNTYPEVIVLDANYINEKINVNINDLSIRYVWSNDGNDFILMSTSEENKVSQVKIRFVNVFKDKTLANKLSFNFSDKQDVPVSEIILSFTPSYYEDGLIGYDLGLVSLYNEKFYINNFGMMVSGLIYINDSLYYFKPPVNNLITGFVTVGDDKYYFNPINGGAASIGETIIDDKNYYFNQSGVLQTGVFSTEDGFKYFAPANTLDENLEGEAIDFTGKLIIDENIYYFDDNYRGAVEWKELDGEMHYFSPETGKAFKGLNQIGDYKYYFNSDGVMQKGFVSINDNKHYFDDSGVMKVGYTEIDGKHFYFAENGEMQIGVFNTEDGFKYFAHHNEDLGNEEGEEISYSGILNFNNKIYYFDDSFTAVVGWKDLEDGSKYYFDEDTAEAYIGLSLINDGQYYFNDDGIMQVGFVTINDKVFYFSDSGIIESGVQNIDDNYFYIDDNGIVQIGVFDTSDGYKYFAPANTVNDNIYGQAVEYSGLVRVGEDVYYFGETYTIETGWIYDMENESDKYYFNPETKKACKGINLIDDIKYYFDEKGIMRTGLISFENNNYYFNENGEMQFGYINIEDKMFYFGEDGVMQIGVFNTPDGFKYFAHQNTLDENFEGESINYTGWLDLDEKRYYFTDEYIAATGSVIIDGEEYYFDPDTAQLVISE
# Assay protocol: ELISA, VHH dilution series on plate-coated rTcdB, anti-E-tag-HRP detection
For each record, check the reported EC50: if it is below 1 nM write YES, else write NO.

Item JZS-C10 (XAF-9) anti-TcdB VHH (VHH) VHH: QLQLVETGGLVQAGGSLRLSCVGSGRGPGINVMGWYRQAPGTERELVATWQTGGTTNYADSVKGRFTISRDNLKNTVSLQMDSLKPEDTAVYYCYLKKWRDEYWGQGTQVTVSS : EC50 beneath 1 nM, strictly?
YES

Decide: EC50 of JZS-H4 (XAF-13) anti-TcdB VHH (VHH) VHH: QLQLVESGGGLVQPGGSLRLSCVASGFNFSVQIMSWVRQAPGKGLEWVSAISTGGASKSYADFAKGRFTISRDNAKNTLYLQMNSLQLEDTAVYFCSKGPRTWINSSPRGQGTQVTVSS strictly below 1 nM?
YES

Hi there! Is EC50 for JZS-E4 (XAF-10) anti-TcdB VHH (VHH, also called JZX-E4) VHH: QVQLVESGGGLAQAGGSLRLSCAASGSSFSMNVMGWYRQPPGKQRELVATIRSDGITNYAESVKGRFTISRDNVKNTVHLEMNRLKAEDTAVYYCFHGRARTGNNADLGSWGQGTQVTVSS below 1 nM, do you know?
NO

Just wondering, is EC50 of JZS-C2 (XAF-6) anti-TcdB VHH (VHH) VHH: QVQLAESGGGLVQPGGSLRLSCAASGFTSNSYYIGWFRQAPGKGREAVSSISSSGGSPNYANAVKGRFTITRDNANNTVYLQMDNLKPEDTAVYYCAASKFPLTTMASNRYHYWGQGTQVTVSS below 1 nM?
NO

Dear colleague, could you confirm whether EC50 of JZT-F7 (XAG-1) anti-TcdB VHH (VHH) VHH: QVQLVETGGGLVQAGGSLRLSCAASGSILSSMGWYRQAPGNQREFVASISRTGATDYADSVAGRFIISRDRGKNTVLALQMDSLKPEDTAVYYCNAGLGMGDPRRPGPWWGQGTQVTVSS falls below 1 nM? Thanks.
NO

Field: below-cutoff. Rule: recorded EC50 strictly less than 1 nM. Subject: JZS-B9 (XAF-5) anti-TcdB VHH (VHH) VHH: QLQLVESGGGLVQPGGSLRLSCTSARFSLINYAIGWFRQAPGQKREGVSLLTSGGATYYADSARDRFTISRDNARNTVYLQMNSLKPEDTAVYSCAAGPYSRTLVSRWKVGDGMEYWGKGTLVTVSS
YES

A record lists JZS-F6 (XAF-12) anti-TcdB VHH (VHH) VHH: QLQLAESGGGLVQPGGSLRLSCAASGITFSNVAMSWVRQAPGKGLEWVSTISTGGSSTSYLDSVKSRFTISRDNAKKTVYLQMNSLKPEDTAVYYCVKGPKYSATIRRPEGQGTQVTVSS . Is its EC50 below 1 nM?
YES

Strictly below 1 nM: is that where EC50 of JZS-B2 (XAF-4) anti-TcdB VHH (VHH) VHH: QVQLAESGGGLVQAGGSLRLSCVGSGTSFPRNYMGWYRQAPGKQRELVAAISHDGNVEYADSVKGRFTISRGNFVNTVALQMNSLKSEDTAVYYCKLVTLRRDEYWGQGTQVTVSS sits?
YES

Next:
Lab log: compare recorded EC50 with 1 nM; is it strictly lower for JZT-G9 (XAG-7) anti-TcdB VHH (VHH) VHH: QVQLAETGGGLVQAGGSLRLSCVSSERNPGINAMGWYRQAPGSQRELVAVWQTGGSLSYADSVKGRFTISRDNLKNTVYLQMNSLKPEDAAVYYCYLKKWRDQYWGQGTRVTVSS ?
YES
